Reference source: ChEMBL document CHEMBL3576853

# Test system: Mycobacterium tuberculosis
# PROTOCOL DETAILS: Inhibition of Mycobacterium tuberculosis recombinant InhA assessed as enzyme activity measured as NADH oxidation using 2-trans-decenyl CoA as substrate at 50 uM by TECAN spectrophotometer analysis
# Design: scale not given: the % may be the effect or the level left
The threshold is inclusive: Activity of exactly 50% counts as MET; values below receive NOT MET.

Query :: Could you verify whether the entry O=C(COc1ccccc1)N1CCN(Cc2cccc(Oc3ccccc3)c2)CC1 shows Activity of no less than 50%?
Result :: MET

Query :: Test whether the compound O=C(c1ccco1)N1CCN(Cc2cccc(Oc3ccccc3)c2)CC1 records Activity of 50% or higher.
Result :: MET

Query :: For this compound, is measured Activity 50% or higher? COc1ccc(OCC(=O)N2CCN(Cc3cccc(Oc4ccccc4)c3)CC2)cc1
Result :: NOT MET

Query :: Has O=C(c1cccc(Oc2ccccc2)c1)N1CCN(C(=O)c2ccco2)CC1 a recorded Activity greater than or equal to 50%?
Result :: MET

Query :: Please indicate if the recorded Activity for Oc1cc(Cl)ccc1Oc1ccc(Cl)cc1Cl meets or exceeds 50%.
Result :: NOT MET

Query :: hey, is Activity for this one >= 50%? Sc1nnc(-c2ccco2)n1/N=C/c1cccc(Oc2ccccc2)c1
Result :: MET

Query :: # bool: Activity of COc1ccccc1C(=O)N1CCN(Cc2cccc(Oc3ccccc3)c2)CC1.O=C(O)C(=O)O >= 50%
Result :: NOT MET
